System: Wolbachia pipientis
method-summary: Anti-Wolbachia Cell-Based Screen
Type: functional
Set-up: scale not given: in the data most compounds retested in dose-response had high values
measurement-parameters: 5 µM
The campaign covered roughly 48,000 compounds. About 13,000 (27%) showed an effect of 50% or more. The list shows a part of the results.
Consider the following compounds; for each one, report its Percent Effect.

compound	obs-value
CS(=O)(=O)NC1CCN(C(=O)NCCNc2ccccn2)CC1	2.154%
O=C(NCc1cc[nH]n1)N1CCCC(N2CCCC2)C1 (stereo unspecified)	111.7%
CC(C)(C)OC(=O)N1CCCCC1C(=O)NCc1cc[nH]n1 (stereo unspecified)	-6.483%
CC(=O)NC1CCCN(C(=O)NCc2cccnc2-n2cccn2)C1 (stereo unspecified)	-5.614%
CC(=O)NC1CCCN(C(=O)CCc2cccnc2)C1 (stereo unspecified)	16.44%
Cc1ccc(CN(Cc2cccnc2)C2CC(C)(C)NC(C)(C)C2)s1.O=C(O)CC(O)(CC(=O)O)C(=O)O	9.465%

The following compounds each have a reported value; give each one's Percent Effect.
1. CC(C)Cc1nc(CN2CC(=O)N(C)c3ccccc3C2=O)no1
2. Cn1cc(C2CCCN2Cc2csc(-c3ccsc3)n2)cn1 (stereo unspecified)
3. CC(=O)NC1CCCN(C(=O)NCc2cccnc2N(C)C)C1 (stereo unspecified)
4. Cc1c(S(=O)(=O)N2CCCCC2c2nnc(-c3cccs3)o2)cnn1C (stereo unspecified)
5. O=C(NCc1cc[nH]n1)N1CCCCC(N2CCCC2)C1 (stereo unspecified)

Resp:
["-12.92%", "2.773%", "9.234%", "114.5%", "0.854%"]
